Test system: Stellaria media
Assay: Pre-emergence herbicidal action, STEME
Assay type: in vivo
Settings: dosage 320 g/ha, scored visually after 3 weeks vs untreated controls (100% = plants have died)
readoutName: herbicidal activity STEME

INSERT INTO results (molecule, assayvalue) VALUES
  ('CCn1nnnc1NC(=O)c1ccc(C(F)F)c(C[S+](C)[O-])c1SC (stereo not shown) [Example 2-171]', '100%'),
  ('CCCn1nnnc1NC(=O)c1ccc(C(F)F)c(CSC)c1SC [Example 3-170]', '100%'),
  ('CCn1nnnc1NC(=O)c1ccc(C(F)F)c(CS(=O)(=O)CC)c1Cl [Example 2-325]', '100%'),
  ('CCn1nnnc1NC(=O)c1ccc(C(F)(F)F)c(CS(C)(=O)=O)c1SC [Example 2-163]', '90%'),
  ('CCCn1nnnc1NC(=O)c1ccc(C(F)(F)F)c(CS(=O)(=O)CC)c1C [Example 3-88]', '80%'),
  ('CCn1nnnc1NC(=O)c1ccc(I)c(C[S+](C)[O-])c1Cl (stereo not shown) [Example 2-363]', '100%'),
  ('CCCn1nnnc1NC(=O)c1ccc(C(F)F)c(CS(=O)(=O)CC)c1Cl [Example 3-325]', '100%'),
  ('CSc1c(C(=O)Nc2nnnn2C)ccc(C(F)F)c1C[S+](C)[O-] (stereo not shown) [Example 1-171]', '100%'),
  ('COCCSCc1c(C(F)(F)F)ccc(C(=O)Nc2nnnn2C)c1Cl [Example 1-305]', '100%'),
  ('Cn1nnnc1NC(=O)c1ccc(C(F)(F)F)c(CSCC2CC2)c1Cl [Example 1-314]', '90%');

* * *

Test system: Avena fatua
Assay: Post-emergence herbicidal action, AVEFA
Format: in vivo
Design: key: % herbicidal action vs untreated; 100 = plants died, 0 = like control
Details: Dosage 80 g/ha
Readings of herbicidal action AVEFA for the listed compounds
readoutName: herbicidal action AVEFA

INSERT INTO results (smiles, measuredon, readoutname, assayvalue) VALUES
  ('CSCc1c(C(F)(F)F)ccc(C(=O)Nc2nnnn2C)c1SC', 'Avena fatua', 'herbicidal action AVEFA', 100),
  ('Cn1nnnc1NC(=O)c1ccc(C(F)(F)F)c(CS(=O)(=O)CC2CC2)c1Cl', 'Avena fatua', 'herbicidal action AVEFA', 100),
  ('CCCn1nnnc1NC(=O)c1ccc(C(F)(F)F)c(CS(C)(=O)=O)c1Cl', 'Avena fatua', 'herbicidal action AVEFA', 100),
  ('COc1c(C(=O)Nc2nnnn2C)ccc(C(F)(F)F)c1CSC', 'Avena fatua', 'herbicidal action AVEFA', 90),
  ('CCCn1nnnc1NC(=O)c1ccc(C(F)(F)F)c(CSCC(F)(F)F)c1Cl', 'Avena fatua', 'herbicidal action AVEFA', 100),
  ('Cn1nnnc1NC(=O)c1ccc(C(F)(F)F)c(CSCC(F)(F)F)c1Cl', 'Avena fatua', 'herbicidal action AVEFA', 100),
  ('Cn1nnnc1NC(=O)c1ccc(C(F)(F)F)c(CS(C)(=O)=O)c1Br', 'Avena fatua', 'herbicidal action AVEFA', 100),
  ('CCCn1nnnc1NC(=O)c1ccc(C(F)(F)F)c(CS(=O)(=O)CC)c1C', 'Avena fatua', 'herbicidal action AVEFA', 80),
  ('CCn1nnnc1NC(=O)c1ccc(C(F)F)c(CSC)c1C', 'Avena fatua', 'herbicidal action AVEFA', 80);

* * *

System: Setaria viridis
Assay: Post-emergence herbicidal action, SETVI
Format: in vivo
Parameters: key: % herbicidal action vs untreated; 100 = plants died, 0 = like control
Settings: Dosage 80 g/ha
readoutName: herbicidal action SETVI

INSERT INTO assay_data (compound, readoutname, assayvalue) VALUES
  ('CCn1nnnc1NC(=O)c1ccc(C(F)F)c(C[S+](C)[O-])c1SC (stereo not drawn) [Example 2-171]', 'herbicidal action SETVI', 90),
  ('Cc1ccc(C(=O)Nc2nnnn2C)c(Cl)c1C[S+](C)[O-] (racemic) [Example 1-288]', 'herbicidal action SETVI', 100),
  ('CCn1nnnc1NC(=O)c1ccc(C(F)(F)F)c(CSCC(F)(F)F)c1Cl [Example 2-311]', 'herbicidal action SETVI', 100),
  ('CCCn1nnnc1NC(=O)c1ccc(S(C)(=O)=O)c(CSC)c1C [Example 3-37]', 'herbicidal action SETVI', 90),
  ('CCCn1nnnc1NC(=O)c1ccc(C(F)(F)F)c(CS(C)(=O)=O)c1Br [Example 3-382]', 'herbicidal action SETVI', 100),
  ('CCCn1nnnc1NC(=O)c1ccc(C(F)(F)F)c(CSC)c1Br [Example 3-380]', 'herbicidal action SETVI', 90),
  ('CCn1nnnc1NC(=O)c1ccc(Cl)c(CSC)c1Cl [Example 2-559]', 'herbicidal action SETVI', 100),
  ('CSCc1c(C)ccc(C(=O)Nc2nnnn2C)c1Cl [Example 1-287]', 'herbicidal action SETVI', 90),
  ('CCn1nnnc1NC(=O)c1ccc(C(F)F)c(CSC)c1C [Example 2-107]', 'herbicidal action SETVI', 90);

* * *

Readings of herbicidal activity STEME for the listed molecules
System: Stellaria media
Assay: Pre-emergence herbicidal action, STEME
Type: in vivo
Details: dosage 320 g/ha, scored visually after 3 weeks vs untreated controls (100% = plants have died)
readoutName: herbicidal activity STEME (%)

INSERT INTO assay_data (molecule, readoutname, assayvalue) VALUES
  ('CCCn1nnnc1NC(=O)c1ccc(C(F)(F)F)c(CSCC)c1Br [Example 3-383]', 'herbicidal activity STEME', 100),
  ('CCn1nnnc1NC(=O)c1ccc(C(F)(F)F)c(C[S+]([O-])CC2CC2)c1Cl (stereo not drawn) [Example 2-315]', 'herbicidal activity STEME', 100),
  ('CCCn1nnnc1NC(=O)c1ccc(C(F)(F)F)c(C[S+](C)[O-])c1Br (stereo not drawn) [Example 3-381]', 'herbicidal activity STEME', 90),
  ('CCCn1nnnc1NC(=O)c1ccc(C(F)(F)F)c(CSCC2CC2)c1Cl [Example 3-314]', 'herbicidal activity STEME', 100),
  ('CCSCc1c(C(F)F)ccc(C(=O)Nc2nnnn2CC)c1Cl [Example 2-323]', 'herbicidal activity STEME', 100),
  ('CCCn1nnnc1NC(=O)c1ccc(C(F)(F)F)c(C[S+]([O-])CC)c1Br (stereo not drawn) [Example 3-384]', 'herbicidal activity STEME', 90),
  ('CCCn1nnnc1NC(=O)c1ccc(C(F)(F)F)c(CSCC)c1Cl [Example 3-299]', 'herbicidal activity STEME', 90),
  ('CCn1nnnc1NC(=O)c1ccc(C(F)(F)F)c(C[S+](C)[O-])c1OC (stereo not drawn) [Example 2-135]', 'herbicidal activity STEME', 90),
  ('CCn1nnnc1NC(=O)c1ccc(C(F)F)c(CSC)c1C [Example 2-107]', 'herbicidal activity STEME', 90);

* * *

Test system: Echinochloa crus-galli
Assay: Pre-emergence herbicidal action, ECHCG
Assay type: in vivo
Settings: dosage 320 g/ha, scored visually after 3 weeks vs untreated controls (100% = plants have died)
readoutName: herbicidal activity ECHCG (%)

INSERT INTO assay_data (compound, measuredon, unitdescriptor, assayvalue) VALUES
  ('CCn1nnnc1NC(=O)c1ccc(C(F)(F)F)c(CSC)c1Br [Example 2-380]', 'Echinochloa crus-galli', '%', 100),
  ('CCSCc1c(C(F)(F)F)ccc(C(=O)Nc2nnnn2C)c1SCC [Example 1-182]', 'Echinochloa crus-galli', '%', 100),
  ('Cc1ccc(C(=O)Nc2nnnn2C)c(Cl)c1CS(C)(=O)=O [Example 1-289]', 'Echinochloa crus-galli', '%', 90),
  ('CSCc1c(C(F)(F)F)ccc(C(=O)Nc2nnnn2C)c1Br [Example 1-380]', 'Echinochloa crus-galli', '%', 100),
  ('CCS(=O)(=O)Cc1c(C(F)F)ccc(C(=O)Nc2nnnn2C)c1Cl [Example 1-325]', 'Echinochloa crus-galli', '%', 100);

* * *

System: Stellaria media
Test: Pre-emergence herbicidal action, STEME
Format: in vivo
Conditions: dosage 320 g/ha, scored visually after 3 weeks vs untreated controls (100% = plants have died)
Readings of herbicidal activity STEME for the listed compounds
readoutName: herbicidal activity STEME (%)

INSERT INTO assay_data (compound, assayvalue) VALUES
  ('CSCc1c(C(F)(F)F)ccc(C(=O)Nc2nnnn2C)c1Br', 90),
  ('CSc1c(C(=O)Nc2nnnn2C)ccc(C(F)(F)F)c1C[S+](C)[O-] (stereo not drawn)', 100),
  ('CCCn1nnnc1NC(=O)c1ccc(C(F)F)c(CSC)c1C', 100),
  ('CCCn1nnnc1NC(=O)c1ccc(C(F)F)c(CSC)c1Cl', 100),
  ('CCSCc1c(C(F)(F)F)ccc(C(=O)Nc2nnnn2C)c1Cl', 100),
  ('CCn1nnnc1NC(=O)c1ccc(C(F)F)c(CS(C)(=O)=O)c1Cl', 100),
  ('CCn1nnnc1NC(=O)c1ccc(C(F)(F)F)c(CSCC(F)(F)F)c1Cl', 100),
  ('CCCn1nnnc1NC(=O)c1ccc(C(F)(F)F)c(CS(=O)(=O)CC)c1Br', 90),
  ('CCCn1nnnc1NC(=O)c1ccc(C(F)(F)F)c(CS(C)(=O)=O)c1SC', 100);
